The entries below are paired with their reported pEC50.
system: HEK293 clonal cell line overexpressing APOL1 G1; assay: APOL1 G1 HEK293 cell rescue assay (Example B3); format: cell-based; conditions: Homo sapiens, HEK293, HEK293 clonal line overexpressing APOL1 G1; geometric mean of at least 2 runs; † = single run; ¥ = concentration at 50% rescue estimated (no sigmoidal curve)
pEC50: −log10 of the molar value.
quantityMeasured: pEC50

compound	testedSystem	operatorSymbol	measuredValue
CP(C)(=O)C1(c2ncc(OCCN3CCC4(CC3)C(=O)Nc3ccc(Cl)cc34)cn2)CC1 [Compound 344]	HEK293 clonal cell line overexpressing APOL1 G1	=	6.60
Cc1cc(OCCN2CCC3(CC2)C(=O)Nc2ccc(C#N)cc23)cc(C)c1S(C)(=O)=O [Compound 130]	HEK293 clonal cell line overexpressing APOL1 G1	=	6.60
CC(=O)N1CCCc2cc(OCCN3CCC4(CC3)C(=O)N(C)c3ccccc34)ccc21 [Compound 36]	HEK293 clonal cell line overexpressing APOL1 G1	<	5.67
CS(=O)(=O)c1ccc(OCCN2CCC3(CC2)C(=O)Nc2ccc(C#N)cc23)cc1 [Compound 71]	HEK293 clonal cell line overexpressing APOL1 G1	=	5.87

====

tested on: HEK293 clonal cell line overexpressing APOL1 G1; assay: APOL1 G1 HEK293 cell rescue assay (Example B3); type: cell-based; conditions: Homo sapiens, HEK293, HEK293 clonal line overexpressing APOL1 G1; geometric mean of at least 2 runs; † = single run; ¥ = concentration at 50% rescue estimated (no sigmoidal curve)
Reported EC50 maps to class as: L = under 100 nM, M = from 100 nM up to 200 nM, H = 200 nM and over

molecule	labelClass
CC(C)(C#N)c1ccc(OCCN2CCC3(CC2)C(=O)Nc2ccc(C#N)cc23)cc1	M
O=C1Nc2ccc(Cl)cc2C12CCN(CCOc1ccc(S(=O)(=O)C3CC3)cc1)CC2	M
Cn1ncc2cc(OCCN3CCC4(CC3)C(=O)Nc3ccccc34)ccc21	H
O=C(c1ccc(OCCN2CCC3(CC2)C(=O)Nc2ccc(Cl)cc23)cc1F)N1CCC1	H
CC1(O)CC(N2C(=O)CCc3cc(OCCN4CCC5(CC4)C(=O)Nc4ccc(Cl)cc45)cnc32)C1 (stereo not drawn)	L
CS(=O)(=O)c1ccc(OCCN2CCC3(CC2)C(=O)Nc2ccc(Cl)cc23)c(F)c1	H
Cc1n[nH]cc1-c1ccc(OCCN2CCC3(CC2)C(=O)Nc2ccc(Cl)cc23)cc1	M
CC(c1ncc(OCCN2CCC3(CC2)C(=O)Nc2ccc(Cl)cc23)cn1)S(C)(=O)=O (single isomer, unassigned) [Compound 2]	H
O=C1Nc2ccc(Cl)cc2C12CCN(CCOc1cnc(N3CC4(CC(O)C4)C3)nc1)CC2	L
[2H]C([2H])([2H])N1C(=O)C2(CCN(CCOc3cnc4c(c3)CCC(=O)N4[C@H]3C[C@@](C)(O)C3)CC2)c2cc(Cl)ccc21	M
CN1C(=O)Cc2cc(OCCN3CCC4(CC3)C(=O)Nc3ccc(C#N)cc34)cc(F)c21	H
CC1(Oc2ncc(OCCN3CCC4(CC3)C(=O)Nc3ccc(C#N)cc34)cn2)COC1	H
N#Cc1ccc2c(c1)C1(CCN(CCOc3ccc(C(N)=O)c(C(F)F)c3)CC1)C(=O)N2	M
CS(=O)(=O)C1(c2c(F)cc(OCCN3CCC4(CC3)C(=O)Nc3ccc(Cl)cc34)cc2F)COC1	L

Taken from patent US12344610B2.
